# Tested on: MCF7
# Method: Antiproliferative activity against human MCF7 cells after 48 hrs by sulforhodamine B assay
# Type: functional, cell-based
# Test Settings: MCF7, 48 h
Reported Property: IC50 (µM)

Illustrative cases are given below, each with its answer.
O=C(Nc1ccc(Nc2ncnc3sc4c(c23)CCCC4)cc1)Nc1c(Cl)cccc1Cl: 103
Cc1cccc(NC(=S)Nc2ccc(Nc3ncnc4sc5c(c34)CCCC5)cc2)c1: 38.8

(1) O=C(NNc1ncnc2sc3c(c12)CCCC3)Nc1ccc(Cl)c(C(F)(F)F)c1
(2) O=C(Nc1ccc(Nc2ncnc3sc4c(c23)CCCC4)cc1)Nc1cc(C(F)(F)F)ccc1F
(3) O=C(NNc1ncnc2sc3c(c12)CCCC3)Nc1cc(C(F)(F)F)ccc1F
Reorder: IC50, max to min. List the labels, following the order given in the request.
1, 3, 2

* * *

# System: MCF7
# Method: Antiproliferative activity against human MCF7 cells after 48 hrs by sulforhodamine B assay
# Type: functional, cell-based
# Test Settings: MCF7, 48 h
Reported Property: IC50 (µM)

Known results for compounds:
Cc1cccc(Cl)c1NC(=O)Nc1ccc(Nc2ncnc3sc4c(c23)CCCC4)cc1: 53.9
Cc1cccc(Cl)c1NC(=O)Nc1nnc2c3c4c(sc3ncn12)CCCC4: 29.1
Cc1cccc(Cl)c1NC(=O)NNc1ncnc2sc3c(c12)CCCC3: 90.2
S=C(Nc1ccccc1)Nc1nnc2c3c4c(sc3ncn12)CCCC4: 80.9

(a) O=C(NNc1ncnc2sc3c(c12)CCCC3)Nc1c(Cl)cccc1Cl
(b) Cc1cccc(Cl)c1-n1c(-c2ccc(Br)cc2)co/c1=N\c1ccc(Nc2ncnc3sc4c(c23)CCCC4)cc1
Given the listed items, does a or b have the lesser reported IC50? State your choice using its label.
a
